- TESTED_SYSTEM: 5-hydroxytryptamine receptor 7 (Homo sapiens, UniProt P34969)
- Sequence (P34969 whole entry): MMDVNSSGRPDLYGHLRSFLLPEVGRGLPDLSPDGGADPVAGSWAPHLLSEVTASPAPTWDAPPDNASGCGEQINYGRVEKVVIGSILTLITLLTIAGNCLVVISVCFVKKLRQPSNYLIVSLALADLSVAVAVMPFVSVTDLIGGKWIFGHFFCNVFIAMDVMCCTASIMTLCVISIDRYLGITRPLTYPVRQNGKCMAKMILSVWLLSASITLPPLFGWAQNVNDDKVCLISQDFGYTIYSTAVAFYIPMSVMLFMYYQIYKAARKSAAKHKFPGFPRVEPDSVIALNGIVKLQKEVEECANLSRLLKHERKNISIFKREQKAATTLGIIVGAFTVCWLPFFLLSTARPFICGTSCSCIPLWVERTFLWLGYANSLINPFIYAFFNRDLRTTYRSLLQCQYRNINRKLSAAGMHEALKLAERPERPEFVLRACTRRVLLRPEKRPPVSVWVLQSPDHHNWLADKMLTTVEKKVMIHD
pKi: −log10 of the molar value.
MEASUREMENT_TYPE: pKi

> print(dat)
                                   compound  endpoint.result
1  CC1(c2cccc(OCc3ccccc3)c2)C(=O)Nc2cc(Cl)cc(Cl)c2C1=O (stereo unspecified)             6.22

* * *

Reported pKi values are given for each entry in this list.
- TESTED_SYSTEM: 5-hydroxytryptamine receptor 6 (Homo sapiens, UniProt P50406)
- Sequence (P50406 whole entry): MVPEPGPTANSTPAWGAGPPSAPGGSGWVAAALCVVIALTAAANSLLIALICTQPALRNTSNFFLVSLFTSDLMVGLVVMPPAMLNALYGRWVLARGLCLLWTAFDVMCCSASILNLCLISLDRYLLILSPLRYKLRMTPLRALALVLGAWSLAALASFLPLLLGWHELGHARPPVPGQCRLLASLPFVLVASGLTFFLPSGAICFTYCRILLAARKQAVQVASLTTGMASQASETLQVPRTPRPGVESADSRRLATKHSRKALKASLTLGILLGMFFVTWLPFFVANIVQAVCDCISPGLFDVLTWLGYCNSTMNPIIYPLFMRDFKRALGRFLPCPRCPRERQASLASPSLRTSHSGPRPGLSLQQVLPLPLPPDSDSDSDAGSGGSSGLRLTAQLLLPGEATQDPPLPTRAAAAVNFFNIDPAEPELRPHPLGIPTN
pKi: −log10 of the molar value.
MEASUREMENT_TYPE: pKi

> print(dat)
                                    compound  measurement.type  limit.operator  endpoint.result
 1  CC1(c2cccc(OCc3ccccc3)c2)C(=O)Nc2cc(Cl)cc(Cl)c2C1=O (stereo not given)               pKi               =             7.08
 2  CC1(c2ccccc2)C(=O)Nc2c(Br)cc(Br)cc2C1=O (stereo not given)               pKi               <             6.00
 3  CC1(c2ccc([N+](=O)[O-])cc2)C(=O)Nc2cc(Cl)cc(Cl)c2C1=O (stereo not given)               pKi               <             6.00
 4  CC1(c2ccc(OCc3ccccc3)c(Br)c2)C(=O)Nc2cc(Cl)cc(Cl)c2C1=O (stereo not given)               pKi               <             6.00
 5  CCN(CC)c1ccc(C2(C)C(=O)Nc3cc(Cl)cc(Cl)c3C2=O)cc1 (stereo not given)               pKi               =             8.04
 6  CC1(c2ccccc2)C(=O)Nc2cc(Br)cc(Br)c2C1=O (stereo not given)               pKi               =             6.71
 7  COc1ccc([C@@]2(C)C(=O)Nc3cc(Cl)cc(Cl)c3C2=O)cc1               pKi               =             6.05
 8  CC1(c2ccccc2)C(=O)Nc2cc(Cl)c(Cl)cc2C1=O (stereo not given)               pKi               <             6.00
 9  CC1(c2ccc(O)c(Br)c2)C(=O)Nc2cc(Cl)cc(Cl)c2C1=O (stereo not given)               pKi               =             7.11
10  CC1(c2ccccc2)C(=O)Nc2cc(Cl)cc(Cl)c2C1=O (racemic)               pKi               =             7.26
11  COc1cc(Br)c2c(c1)NC(=O)C(C)(c1ccccc1)C2=O (stereo not given)               pKi               =             7.14
12  CNc1ccc(C2(C)C(=O)Nc3cc(Cl)cc(Cl)c3C2=O)cc1 (stereo not given)               pKi               =             6.59
13  CC1(c2ccc(O)cc2)C(=O)Nc2cc(Cl)cc(Cl)c2C1=O (stereo not given)               pKi               =             7.91
14  CC1(c2ccccc2)C(=O)Nc2ccccc2C1=O (stereo not given)               pKi               <             6.00
15  CC1(c2ccc(O)c([N+](=O)[O-])c2)C(=O)Nc2cc(Cl)cc(Cl)c2C1=O (stereo not given)               pKi               <             6.00
